Target: UGT1A8 (Homo sapiens, UniProt Q9HAW9)
Construct: purchased BD Gentest Corp. (Woburn, MA, USA); host or cells: baculovirus-infected insect cells
Sequence (Q9HAW9 26-530): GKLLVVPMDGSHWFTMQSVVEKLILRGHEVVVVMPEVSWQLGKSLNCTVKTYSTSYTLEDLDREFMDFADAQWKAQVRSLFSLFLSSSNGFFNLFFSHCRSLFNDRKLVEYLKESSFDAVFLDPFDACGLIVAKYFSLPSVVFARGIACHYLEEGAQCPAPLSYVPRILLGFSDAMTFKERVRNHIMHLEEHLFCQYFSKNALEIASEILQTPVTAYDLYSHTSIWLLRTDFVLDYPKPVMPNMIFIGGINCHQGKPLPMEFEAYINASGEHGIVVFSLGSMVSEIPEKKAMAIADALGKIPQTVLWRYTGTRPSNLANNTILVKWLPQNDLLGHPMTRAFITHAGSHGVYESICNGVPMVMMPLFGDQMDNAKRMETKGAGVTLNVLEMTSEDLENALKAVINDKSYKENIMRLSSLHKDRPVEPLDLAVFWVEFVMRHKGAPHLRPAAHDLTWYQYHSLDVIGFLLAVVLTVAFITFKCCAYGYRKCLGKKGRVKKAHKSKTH
Assay: Recombinant UGT1A8-catalyzed 4-MU glucuronidation inhibition
Assay type: in vitro ADME
Conditions: human, pH 7.4, probe 4-methylumbelliferone (4-MU); UGT1A8, at 100 μM; read-out: inhibition percent
recorded metric: inhibition at 100 µM (%)
Kindly answer with a numeric value in %, unit omitted.

stdin: Write down inhibition at 100 µM measured for item C[C@@H]1CC[C@@]2(OC1)O[C@H]1C[C@H]3[C@@H]4CC=C5C[C@@H](O)C[C@@H](O[C@@H]6O[C@H](C)[C@H](O)[C@H](O[C@@H]7OC[C@@H](O)[C@H](O)[C@H]7O)[C@H]6O[C@@H]6O[C@@H](C)[C@H](O)[C@@H](O)[C@H]6O)[C@]5(C)[C@H]4CC[C@]3(C)[C@H]1[C@@H]2C [OD, ophiopogonin D]
stdout: 82.7

These entries and their values trace back to paper PMC4229968.
